This section presents compounds with their documented IC50 values.
biological target: UniProt Q04828; assay: Inhibition of human recombinant GST-tagged AKR1C1 expressed in Escherichia coli BL21
Report as a plain number; the unit µM is understood.

Answered examples (3):
CCOC1CCC/C1=C\c1ccc(Cl)cc1 (centres undefined)	62.1
O=C(O)C1CCC(c2ccccc2)C1 (centres undefined)	98.6
O=C(O)C1(c2ccccc2)CCCC1	72.9

Query block: Which IC50 reading was recorded for the compound O=C1CCC/C1=C\c1ccc(Cl)cc1 ?
Result block: 35

###

target: Aldo-keto reductase family 1 member C3 (Homo sapiens, UniProt P42330); experiment: Inhibition of human recombinant GST-tagged AKR1C3 expressed in Escherichia coli BL21
Sequence (P42330 whole entry): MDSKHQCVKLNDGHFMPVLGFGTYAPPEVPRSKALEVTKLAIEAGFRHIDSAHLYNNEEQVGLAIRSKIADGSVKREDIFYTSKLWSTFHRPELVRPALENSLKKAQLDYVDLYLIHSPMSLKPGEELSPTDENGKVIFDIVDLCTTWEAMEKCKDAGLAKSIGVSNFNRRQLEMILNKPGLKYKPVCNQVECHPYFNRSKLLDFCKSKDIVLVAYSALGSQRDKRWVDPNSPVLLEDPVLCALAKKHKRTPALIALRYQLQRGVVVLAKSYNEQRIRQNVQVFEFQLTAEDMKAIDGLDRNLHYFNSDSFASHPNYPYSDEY
This section presents compounds with their documented IC50 values.
Report as a plain number; the unit µM is understood.

CCOC1CCC/C1=C\c1ccc(Cl)cc1 (centres undefined)	22.5
O=C1CCC/C1=C\c1ccc(Cl)cc1	36.7

Query block: Which IC50 reading was recorded for the compound O=C(O)C1CCC(c2ccccc2)C1 (centres undefined) ?
Result block: 76.6

Query block: Quick one: COC1CCC/C1=C\c1ccc(Cl)cc1 (centres undefined)
Result block: 17.8

###

target: Aldo-keto reductase family 1 member C3 (Homo sapiens) (UniProt P42330); assay: Inhibition of human recombinant GST-tagged AKR1C3 expressed in Escherichia coli BL21 at 100 uM
Sequence (P42330 whole entry): as above
Activity calls are given as the source filed them. The calls are words filed in the database; no cut-off is given here.
Measured property: inhibition

O=C1CCC/C1=C\c1ccc(Cl)cc1	88.8%
O[C@H]1CCC[C@H]1Cc1ccccc1 (relative stereo)	inactive
Cc1ccc(S(=O)(=O)N[C@@H]2CCC[C@H]2C#N)cc1 (relative stereo)	inactive
Cc1ccc(S(=O)(=O)N2C3CCCC32)cc1 (stereo unspecified)	2.7%
Cc1ccc(S(=O)(=O)N[C@@H]2CCC[C@H]2Br)cc1 (relative stereo)	9.2%

# next molecule below
Query block: Field: inhibition (Aldo-keto reductase family 1 member C3 (Homo sapiens) (UniProt P42330)). Entry: O[C@@H]1CCC[C@H]1Cc1ccccc1 (relative stereo)
Result block: inactive

###

biological target: Aldo-keto reductase family 1 member C1 (Homo sapiens) (UniProt Q04828); assay: Inhibition of human recombinant GST-tagged AKR1C1 expressed in Escherichia coli BL21 at 100 uM
Sequence (Q04828 whole entry): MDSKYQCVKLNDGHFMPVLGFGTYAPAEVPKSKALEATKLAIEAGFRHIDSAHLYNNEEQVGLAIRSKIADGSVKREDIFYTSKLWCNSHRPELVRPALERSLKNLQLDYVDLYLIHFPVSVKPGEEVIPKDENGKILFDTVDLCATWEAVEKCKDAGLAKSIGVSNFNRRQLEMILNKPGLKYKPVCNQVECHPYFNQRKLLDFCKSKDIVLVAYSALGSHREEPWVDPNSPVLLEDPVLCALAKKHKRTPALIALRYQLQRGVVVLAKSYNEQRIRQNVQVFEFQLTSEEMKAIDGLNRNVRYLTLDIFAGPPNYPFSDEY
This section presents compounds with their documented inhibition values.
Report as a plain number; the unit % is understood.

Answered examples (10):
Cc1ccc(S(=O)(=O)N[C@@H]2CCC[C@H]2C(=O)O)cc1 (relative stereo)	26.1
Cc1ccc(S(=O)(=O)N[C@@H]2CCC[C@H]2Br)cc1 (relative stereo)	20.3
O=C1CCC/C1=C\c1ccc(Cl)cc1	77.8
O[C@@H]1CCC[C@H]1Cc1ccccc1 (relative stereo)	13.8
CCOC1CCC/C1=C\c1ccc(Cl)cc1 (stereo not drawn)	52.9
COC1CCC/C1=C\c1ccc(Cl)cc1 (stereo not drawn)	40.1
O[C@@H]1CCC[C@H]1Nc1ccccc1 (relative stereo)	14.7
O=C(O)C1(c2ccccc2)CCCC1	53.5
O[C@H]1CCC[C@H]1Cc1ccccc1 (relative stereo)	9.7
Cc1ccc(S(=O)(=O)N[C@@H]2CCC[C@H]2C#N)cc1 (relative stereo)	15.9

Query block: Which inhibition reading was recorded for the compound Cc1ccc(S(=O)(=O)N2C3CCCC32)cc1 (stereo not drawn) ?
Result block: 2.1

Query block: Quick one: Cc1ccc(S(=O)(=O)N[C@@H]2CCC[C@H]2C(N)=O)cc1 (relative stereo)
Result block: 12.9

Query block: Quick one: O=C(O)C1CCC(c2ccccc2)C1 (stereo not drawn)
Result block: 55.4

Origin of values: ChEMBL document CHEMBL1158398
